All values here come from ChEMBL document CHEMBL5126634.

Tested on: PC-3
Assay: Cytotoxicity against human PC-3 cells assessed as cell growth inhibition
Format: functional, cell-based
metric-name: IC50 (µM)
Your answer should be a plain number; it is taken to be in µM.

The molecule O=C1CC[C@]2(O)c3c(ccc(O)c31)-c1ccc(O)c3c1[C@H]2[C@H]1O[C@H]1C3=O , when measured on PC-3, yielded IC50 of 14.3

====

System: SGC-7901
Experiment: Cytotoxicity against human SGC-7901 cells assessed as cell growth inhibition
Type: functional, cell-based
metric-name: pIC50
Give only the number. pIC50 is defined as minus log10 of concentration in molar units.

Kindly note the recorded pIC50 for O=C1CCc2c3c4c(cc(O)cc4c4ccc(O)c1c24)[C@H](O)CC3 , which is 4.56
